read-out: Phosphatase and tensin (PTEN), PTEN (gene 5728); assay: LTEA_HepaRG_PTEN: Life Technologies and Expression Analysis (LTEA) Assay for Phosphatase and tensin (PTEN) using HepaRG (AID 2283523); settings: mRNA level, 48 h; actives raise or lower the signal
The source made the active and inactive calls. The calls were made as follows: active = hit-call score of the fitted dose curve at least 0.9, where 1 is the maximum; inactive = score below 0.9.
Give your call using only these classes: active, inactive

Check out these entries, answers already filled in.
molecule	label
COC(=O)c1ccc(I)cc1S(=O)(=O)NC(=O)Nc1nc(C)nc(OC)n1	inactive
CCCCC(CC)COC(=O)c1ccccc1C(=O)O (stereo not given)	inactive
CC(=O)S[C@@H]1CC2=CC(=O)CC[C@]2(C)[C@H]2CC[C@@]3(C)[C@@H](CC[C@@]34CCC(=O)O4)[C@H]12	inactive
CCCN(CCC)C(=O)SCC	inactive
COc1c(Cl)ccc(Cl)c1C(=O)O	inactive
C#C[C@]1(O)CC[C@H]2[C@@H]3CCC4=CC(=O)CC[C@@H]4[C@H]3CC[C@@]21CC	inactive

Exam item: Given "CCN(Cc1c(F)cccc1Cl)c1c([N+](=O)[O-])cc(C(F)(F)F)cc1[N+](=O)[O-]" , state the outcome it received in this test.
Marked response: inactive

Exam item: Similarly, "CSC(=O)c1cccc2nnsc12" ?
Marked response: inactive

Exam item: Similarly, "COC(=O)CSc1cc(N=c2sc(=O)n3n2CCCC3)c(F)cc1Cl" ?
Marked response: inactive

Exam item: Similarly, C=CCOC(Cn1ccnc1)c1ccc(Cl)cc1Cl (stereo not given) ?
Marked response: inactive

* * *

assay: Tanguay_ZF_120hpf_SNOU_legacy: (Legacy) Oregon State University Tanguay Lab 120 Hour Post-fertilization zebrafish Assay for Snout Malformation (AID 2283637)
Records with an inconclusive call do not appear. The source made the active and inactive calls. Rule for the calls: active = hit-call score of the fitted dose curve at least 0.9, where 1 is the maximum; inconclusive = response in the unintended direction; inactive = score below 0.9.
Give your call using only these classes: class 1 = active, class 0 = inactive

molecule	label
CCCCOC(=O)[C@@H](C)Oc1ccc(Oc2ccc(C(F)(F)F)cn2)cc1	class 0
CCOC(=O)C(C)Oc1ccc(Oc2nc3ccc(Cl)cc3o2)cc1 (stereo not drawn)	class 0
COc1c(Cl)ccc(Cl)c1C(=O)O	class 0
CC(C)CCCCCCc1ccc(O)cc1	class 0
CCCCCOC(=O)COc1cc(N2C(=O)C3=C(CCCC3)C2=O)c(F)cc1Cl	class 0

Now turn to the next molecule.
Exam item: Given C[C@]12CC[C@@H]3c4ccc(O)cc4C[C@@H](CCCCCCCCCS(=O)CCCC(F)(F)C(F)(F)F)[C@H]3[C@@H]1CC[C@@H]2O (stereo partly drawn) , state the outcome it received in this test.
Marked response: class 0

* * *

test: Tanguay_ZF_120hpf_PE_legacy: (Legacy) Oregon State University Tanguay Lab 120 Hour Post-fertilization zebrafish Assay for Pericardial Edema (AID 2283640)
Results filed as inconclusive are left out. The source made the active and inactive calls. Rule for the calls: active = hit-call score of the fitted dose curve at least 0.9, where 1 is the maximum; inconclusive = response in the unintended direction; inactive = score below 0.9.
Give your call using only these classes: t (active), f (inactive)

molecule	label
S=C([S-])NCCNC(=S)[S-].[Mn+2]	f

Exam item: Given "CC(C)(C)[C@@H](O)[C@@H](Cc1ccc(Cl)cc1)n1cncn1" , state the outcome it received in this test.
Marked response: t

* * *

target: Nuclear receptor subfamily 1 group I member 2 (Homo sapiens) (UniProt O75469); experiment: ATG_PXR_TRANS: Attagene TRANS-FACTORIAL HepG2 Assay for human Pregnane X Receptor (PXR) (AID 2283008)
Sequence (O75469 whole entry, looked up): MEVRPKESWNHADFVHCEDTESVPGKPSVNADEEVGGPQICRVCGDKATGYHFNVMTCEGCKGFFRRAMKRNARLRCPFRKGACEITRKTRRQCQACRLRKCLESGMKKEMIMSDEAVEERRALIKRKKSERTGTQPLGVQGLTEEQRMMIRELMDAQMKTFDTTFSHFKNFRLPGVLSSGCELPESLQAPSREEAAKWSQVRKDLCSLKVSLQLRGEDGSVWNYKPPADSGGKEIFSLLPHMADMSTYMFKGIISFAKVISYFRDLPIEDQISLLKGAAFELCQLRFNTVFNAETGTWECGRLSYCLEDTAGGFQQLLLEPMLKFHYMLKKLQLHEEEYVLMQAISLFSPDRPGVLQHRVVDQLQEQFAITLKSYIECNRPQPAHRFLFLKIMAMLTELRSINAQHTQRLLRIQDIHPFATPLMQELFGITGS
Inconclusive results are not listed. The source made the active and inactive calls. The calls were made as follows: active = hit-call score of the fitted dose curve at least 0.9, where 1 is the maximum; inconclusive = response in the unintended direction; inactive = score below 0.9.
Give your call using only these classes: TRUE (active), FALSE (inactive)

compound	label
CCOC(=O)[C@H](C)Oc1ccc(Oc2nc3ccc(Cl)cc3o2)cc1	FALSE
CCOC(=O)C(C)Oc1ccc(Oc2nc3ccc(Cl)cc3o2)cc1 (configuration not stated)	FALSE
c1ccc2[nH]c(-c3cscn3)nc2c1	FALSE
C[C@]12CC[C@@H]3c4ccc(O)cc4C[C@@H](CCCCCCCCCS(=O)CCCC(F)(F)C(F)(F)F)[C@H]3[C@@H]1CC[C@@H]2O (some centres not stated)	TRUE
COC(=O)CSc1cc(N=c2sc(=O)n3n2CCCC3)c(F)cc1Cl	FALSE
COC(=O)c1cccc(C)c1S(=O)(=O)NC(=O)Nc1nc(OCC(F)(F)F)nc(N(C)C)n1	FALSE
COc1c(Cl)ccc(Cl)c1C(=O)O	FALSE
COC(=O)c1ccc(CNS(C)(=O)=O)cc1S(=O)(=O)NC(=O)Nc1nc(OC)cc(OC)n1	FALSE
O=C(c1ccc(O)cc1O)c1ccc(O)cc1O	FALSE
CCOC(=O)NCCOc1ccc(Oc2ccccc2)cc1	FALSE

Exam item: Given "CCCOC(=O)c1ccc(C(=O)OCCC)nc1" , state the outcome it received in this test.
Marked response: FALSE

Exam item: Similarly, CCOC(=O)C(C)Oc1ccc(Oc2cnc3cc(Cl)ccc3n2)cc1 (configuration not stated) ?
Marked response: FALSE

Exam item: Similarly, "CC(C)(C)[C@@H](O)[C@@H](Cc1ccc(Cl)cc1)n1cncn1" ?
Marked response: FALSE

Exam item: Similarly, CCCCC(CC)COC(=O)c1ccccc1C(=O)O (configuration not stated) ?
Marked response: FALSE

Exam item: Similarly, "CCCCOCCOCCOCc1cc2c(cc1CCC)OCO2" ?
Marked response: TRUE

Exam item: Similarly, "CCNc1nc(N)nc(Cl)n1" ?
Marked response: FALSE

Exam item: Similarly, "CCN(Cc1c(F)cccc1Cl)c1c([N+](=O)[O-])cc(C(F)(F)F)cc1[N+](=O)[O-]" ?
Marked response: TRUE

Exam item: Similarly, "c1ccc(Nc2ccccc2)cc1" ?
Marked response: FALSE

Exam item: Similarly, "CCN(CC)C(=O)c1cccc(C)c1" ?
Marked response: FALSE

Exam item: Similarly, "OB(O)O" ?
Marked response: FALSE

Exam item: Similarly, "CCCCOC(=O)[C@@H](C)Oc1ccc(Oc2ccc(C(F)(F)F)cn2)cc1" ?
Marked response: FALSE

Exam item: Similarly, "CCCN(CCC)C(=O)SCC" ?
Marked response: FALSE

Exam item: Similarly, "CCOC(=O)c1ccc(O)cc1" ?
Marked response: FALSE

Exam item: Similarly, "CC(=O)[C@H]1CC[C@H]2[C@@H]3CCC4=CC(=O)CC[C@]4(C)[C@H]3CC[C@]12C" ?
Marked response: TRUE

Exam item: Similarly, "N#CSCSc1nc2ccccc2s1" ?
Marked response: FALSE

Exam item: Similarly, "CCOC(=O)COc1cc(-n2ncc(C(F)(F)F)c(C)c2=O)c(F)cc1Cl" ?
Marked response: FALSE

Exam item: Similarly, CCCCOC(=O)C(C)Oc1ccc(Oc2ccc(C(F)(F)F)cn2)cc1 (configuration not stated) ?
Marked response: FALSE

Cited source: PubChem BioAssay (EPA / NIEHS)
